In this section, each of the compounds is paired with its reported log10 TGI.
# Tested on: SF-539 CNS
# assay_explanation: NCI tumour cell line growth inhibition, 48 h
Response schema: value (number) is log10 of TGI in units of µM.

[
  {
    "compound": "CCCCCCCCCCCCCCCCNCC(O)CN (centres undefined)",
    "log10 TGI": 0.67
  }
]

Next up:
# get_value(readout='log10 TGI', item= `CN(C)C[C@H]1CCn2c(c(C3=C(c4cn(C)c5ccccc45)C(=O)NC3=O)c3ccccc32)C1` ) 0.89

----------
# Tested on: SR leukemia
# assay_explanation: NCI tumour cell line growth inhibition, 48 h; in the data active = GI50 below about 0.43 µM; inactive = the rest
Response enum: active, inactive

Below, 4 compounds whose answers are already recorded.
[
  {
    "compound": "C=C(C)[C@@H]1CC[C@]2(COCCCNCCCN)CC[C@]3(C)[C@H](CC[C@@H]4[C@@]5(C)CC[C@H](OCCCN)C(C)(C)[C@@H]5CC[C@]43C)[C@@H]12",
    "target_under_test": "SR leukemia",
    "cat": "inactive"
  },
  {
    "compound": "COc1ccc(OC)c(NC(=O)c2cccc(NC3=C(Cl)C(=O)N(Cc4ccccc4)C3=O)c2)c1",
    "target_under_test": "SR leukemia",
    "cat": "inactive"
  },
  {
    "compound": "Nc1ncnc2c1c(-c1ccc(Oc3ccccc3)cc1)nn2C[C@H]1SSC[C@@H]1O",
    "target_under_test": "SR leukemia",
    "cat": "active"
  },
  {
    "compound": "C=C1C(=O)O[C@H]2[C@H]1CC/C(COC(=O)c1cn(C)c3ccccc13)=C\\CC[C@@]1(C)O[C@@H]21",
    "target_under_test": "SR leukemia",
    "cat": "active"
  }
]

Entry `CC/C=C\C[C@H](O)C/C=C1/C(=O)C=C[C@@H]1C/C=C\CCCC(=O)OC(C)C` : call = ? inactive

Entry `O=C1CSC(c2ccc(-c3nc4ccccc4[nH]3)cc2)=N1` : call = ? inactive

Entry O=P(O)(O)OCC1OC(n2cnc3c(NCc4ccco4)ncnc32)C(O)C1O (stereo not given) : call = ? inactive

Entry `CCCCCCCN(CCCCCCC)C(=N)c1ccnc2ccccc12` : call = ? inactive

Entry `CCCCC[C@H]1CC=C2C(=O)C=C[C@@H]2CC=CCCCC(=O)O[C@@H](CCCCC)CC=C2C(=O)C=C[C@@H]2CC=CCCCC(=O)O[C@@H](CCCCC)CC=C2C(=O)C=C[C@@H]2CC=CCCCC(=O)O1` : call = ? active

Entry `Oc1[nH]c(N=C2N=c3ccccc3=N2)c2ccccc12` : call = ? inactive

----------
# Test system: NCI-H460 lung
Response enum: active, inactive

Below, 3 compounds whose answers are already recorded.
[
  {
    "compound": "C=C1C(=O)O[C@H]2[C@H]1CC/C(COC(=O)c1cn(C)c3ccccc13)=C\\CC[C@@]1(C)O[C@@H]21",
    "cat": "inactive"
  },
  {
    "compound": "CCCCCCCN(CCCCCCC)C(=N)c1ccnc2ccccc12",
    "cat": "inactive"
  },
  {
    "compound": "CCN1C(=O)N(CC)C2C1NN=c1s/c(=C\\c3cccs3)c(=O)n12 (stereo not given)",
    "cat": "active"
  }
]

Now consider a different compound.
Entry `COc1ccc(OC)c(NC(=O)c2cccc(NC3=C(Cl)C(=O)N(Cc4ccccc4)C3=O)c2)c1` : call = ? inactive

----------
In this section, each of the compounds is paired with its reported log10 of TGI.
# System: MALME-3M melanoma
# assay_explanation: NCI tumour cell line growth inhibition, 48 h
Response schema: value (number) is log10 of TGI in units of µM.

Examples with their reported log10 of TGI follow.
[
  {
    "compound": "Cn1cc(-c2nc(-c3c[nH]c4ccncc34)cs2)c2ccccc21",
    "log10 of TGI": 0.51
  },
  {
    "compound": "CC(CN(C)C)S(=O)(=O)c1ccc(-c2cnc(N)c(C(=O)Nc3ccccc3)n2)cc1 (stereo not given)",
    "log10 of TGI": 1.42
  },
  {
    "compound": "O=C(NNS(=O)(=O)c1ccc(Br)cc1)c1ccc(Cl)cc1NC(=O)C12CC3CC(CC(C3)C1)C2",
    "log10 of TGI": 1.55
  },
  {
    "compound": "c1ccc2cc(Cn3cc[n+](Cc4ccc5ccccc5c4)c3)ccc2c1",
    "log10 of TGI": 0.40
  }
]

Next up:
# get_value(readout='log10 of TGI', item= `COc1cc(OC)c(/C=C/C(=O)c2ccc(Nc3ncnc4ccccc34)cc2)c(OC)c1` ) 0.42

----------
# Tested on: TK-10 renal
# assay_explanation: NCI tumour cell line growth inhibition, 48 h
reported_metric: log10(TGI) (log10 of the value in µM)
Response schema: value (number) is log10 of TGI in units of µM.

[
  {
    "compound": "Cn1cnc([N+](=O)[O-])c1Sc1nnnn1C",
    "measured_value": 1.50
  },
  {
    "compound": "COc1cc(OC)c(/C=C/C(=O)c2ccc(Nc3ncnc4ccccc34)cc2)c(OC)c1",
    "measured_value": 0.57
  },
  {
    "compound": "CCN(CC)CCC(=O)OC1C(C)=CC(C)C(=O)CC(C(C)CC2CCC(O)C(OC)C2)OC(=O)C2CCCCN2C(=O)C(=O)[C@@]2(O)OC(CCC2C)CC(OC)\\C(C)=C/C=C/C=C/C(C)CC(C)C(=O)C1OC (some centres undefined)",
    "measured_value": 1.37
  },
  {
    "compound": "CCCCCCCCCC(O)CC(=O)c1c(O)cccc1O (centres undefined)",
    "measured_value": 1.66
  },
  {
    "compound": "O=C1Nc2ccccc2/C1=C\\c1cccc(/C=C2/C(=O)Nc3ccccc32)n1",
    "measured_value": 0.15
  }
]

# get_value(readout='log10(TGI)', item= `CCNC(=O)NNc1ncnc2c1c(-c1ccc(Cl)cc1)cn2-c1ccc(C)cc1` ) 1.91

----------
# Tested on: A549 NSCLC
# assay_explanation: NCI tumour cell line growth inhibition, 48 h; in the data active means GI50 below about 0.43 µM; inactive means the rest
Response enum: yes = active, no = inactive

Below, 2 compounds whose answers are already recorded.
[
  {
    "compound": "N#Cc1ccc(CSc2ncnc3nc[nH]c23)cc1",
    "cat": "no"
  },
  {
    "compound": "O=C1OCC(c2ccc(O)cc2)=C1c1cc(O)c(O)c(O)c1",
    "cat": "no"
  }
]

Entry `COc1cccc(-n2ncc3c(N/N=C/c4ccc(C)cc4)ncnc32)c1` : call = ? no

Entry `C[C@]12CC[C@@H]3c4ccc(O)cc4CC[C@H]3[C@@H]1CC[C@@H]2NS(=O)(=O)c1cccc(Cl)c1` : call = ? no

Entry `c1ccc2cc(Cn3cc[n+](Cc4ccc5ccccc5c4)c3)ccc2c1` : call = ? no

Entry `CCCCC[C@H]1CC=C2C(=O)C=C[C@@H]2CC=CCCCC(=O)O[C@@H](CCCCC)CC=C2C(=O)C=C[C@@H]2CC=CCCCC(=O)O[C@@H](CCCCC)CC=C2C(=O)C=C[C@@H]2CC=CCCCC(=O)O1` : call = ? no

Entry `COc1cc(OC)cc(-c2nc3sccn3c2/C=N/N=C(N)N)c1` : call = ? no

----------
# Test system: SNB-78 CNS
# assay_explanation: NCI tumour cell line growth inhibition, 48 h
Where a SMILES comes first, the peptide text is derived from it. The star is where a group is joined. Boc = CC(C)(C)OC(=O)*
reported_metric: TGI

Examples with their reported TGI follow.
[
  {
    "compound": "Cc1c(-c2coc(-c3ccccc3)n2)c(=O)n(-c2ccccc2)n1C",
    "target_under_test": "SNB-78 CNS",
    "TGI": "> 100 µM"
  },
  {
    "compound": "C=C1C2C[C@@H]3OC4CC5O[C@]6(CC5OC4C(C)C3OC(=O)CC3CC[C@@H]4OC5C7OC8C[C@](CCC9CC(=C)[C@H](CCC(C[C@H]1C)O2)O9)(OC7C4O3)O[C@@H]85)C[C@@H]1O[C@@]2(CC(C)[C@@H]3OC(CC(=O)CCO)C(O)C[C@@H]3O2)CC(C)[C@@H]1O6 (some centres not stated)",
    "target_under_test": "SNB-78 CNS",
    "TGI": "1.98 µM"
  },
  {
    "compound": "Nc1ccc2nc(Nc3ccc(Cl)c(Cl)c3)cnc2c1",
    "target_under_test": "SNB-78 CNS",
    "TGI": "> 100 µM"
  },
  {
    "compound": "CCCN(CCC)CCc1cc(C(C)=O)n(S(=O)(=O)c2ccc(C)cc2)c1",
    "target_under_test": "SNB-78 CNS",
    "TGI": "> 100 µM"
  },
  {
    "compound": "C[N+](C)(C)CCOC(=O)/C=C/c1cnc[nH]1",
    "target_under_test": "SNB-78 CNS",
    "TGI": "> 500 µM"
  },
  {
    "compound": "COc1ccc2c3c(c(C(=O)O)oc13)CCC2",
    "target_under_test": "SNB-78 CNS",
    "TGI": "> 100 µM"
  },
  {
    "compound": "CN(C)C(=S)/N=c1\\ssc(=S)n1Cc1cccs1",
    "target_under_test": "SNB-78 CNS",
    "TGI": "> 100 µM"
  },
  {
    "compound": "COc1cc(N)c2[nH]c3c(C)ccc(C)c3c2c1",
    "target_under_test": "SNB-78 CNS",
    "TGI": "> 100 µM"
  }
]

Next up:
# get_value(readout='TGI', item= CSCCC(NC(=O)C(CC(C)C)NC(=O)C1CCCN1C(=O)C(Cc1ccccc1)NC(=O)C(Cc1ccccc1)NC(=O)C(CCC(=O)O)NC(=O)OC(C)(C)C)C(N)=O (configuration not stated) (Boc-EFFPLM-NH2; configuration not given here) ) > 100 µM
